# key: entry, value: MIC SA
tested on: Staphylococcus aureus; experiment: Antibacterial activity assay (MIC, broth dilution); format: cell-based; settings: S. aureus USA300 (MRSA); average of two replicates
Output spec: scalar in µg/mL, unitless text.

Before answering, review these 5 worked examples.
• Cc1ccc(/C=C/c2cc(-c3ccc(Br)cc3)cc(-c3ccc(Br)cc3)[n+]2C)cc1.[I-] = 1
• Cc1ccc(-c2cc(-c3ccc(Br)cc3)cc(/C=C/c3ccc(N(C)C)cc3)[n+]2C)cc1.[I-] = 0.5
• CN(C)c1ccc(/C=C/c2cc(-c3ccc(Br)cc3)cc(-c3ccc(Br)cc3)[n+]2C)cc1.[I-] = 1
• CC(C)C[n+]1c(/C=C/c2ccc(N(C)C)cc2)cc(-c2ccc(Br)cc2)cc1-c1ccc(Br)cc1.[I-] = 0.5
• CN(C)c1ccc(/C=C/c2cc(-c3ccc(Br)cc3)cc(-c3ccc(Br)cc3)[n+]2C2CCCCC2)cc1.[I-] = 1

Moving on to another molecule below.
Request: Give the reported value of MIC SA for this record: "CC(C)[n+]1c(/C=C/c2ccc(N(C)C)cc2)cc(-c2ccc(Br)cc2)cc1-c1ccc(Br)cc1.[I-]"
Response: 2

###

test system: Staphylococcus aureus; assay: Antibacterial activity assay (MIC, broth dilution); format: cell-based; conditions: Staphylococcus aureus; Table 16; CLSI M07-A10 dilution method; read-out: MIC S. aureus
measurement-kind: MIC (µg/mL)
Output spec: scalar in µg/mL, unitless text.

• CCN(CC)c1ccc(/C=C/c2cc(-c3ccc(Br)cc3)cc(-c3ccc(Br)cc3)[n+]2C)cc1F.[I-] = 32

Request: Give the reported value of MIC for this record: "Cc1ccc(-c2cc(-c3ccc(Br)cc3)cc(/C=C/c3ccc(N(C)C)cc3)[n+]2C)c(C)c1.[I-]"
Response: 0.25

Request: Give the reported value of MIC for this record: "Cc1ccc(-c2cc(/C=C/c3ccc(N(C)C)cc3)[n+](C)c(-c3ccc(Br)cc3)c2)cc1"
Response: 0.5

Request: Give the reported value of MIC for this record: "CN(C)c1ccc(/C=C/c2cc(-c3ccc(Br)cc3)cc(-c3ccc(Br)cc3)[n+]2C)cc1.[I-]"
Response: 1

Request: Give the reported value of MIC for this record: "CCN(CC)c1ccc(/C=C/c2cc(-c3ccc(Br)cc3)cc(-c3ccc(C)cc3C)[n+]2C)cc1.[I-]"
Response: 0.5

Request: Give the reported value of MIC for this record: "Cc1ccc(-c2cc(-c3ccc(Br)cc3)cc(/C=C/c3ccc(N(C)C)cc3)[n+]2C)cc1C.[I-]"
Response: 1

###

assay: Cytotoxicity testing (CC50, MTS assay); conditions: human
measurement-kind: CC50 at 24 h (µg/mL)
Output spec: scalar in µg/mL, unitless text.

Request: Give the reported value of CC50 at 24 h for this record: "Cc1ccc(-c2cc(-c3ccc(Br)cc3)cc(/C=C/c3ccc(N(C)C)cc3)[n+]2C)c(C)c1.[I-]"
Response: 3.5

###

test: in vivo; details: CD1, mouse, plasma, iv, 10 mg/kg
measurement-kind: Cmax (ng/mL)
Output spec: scalar in ng/mL, unitless text.

Request: Give the reported value of Cmax for this record: CN(C)c1ccc(/C=C/c2cc(-c3ccc(F)cc3)cc(-c3ccc(F)cc3)[o+]2)cc1 [Compound 7jc47-1]
Response: 3220

###

target: CYP3A4 (Homo sapiens, UniProt P08684); assay: P450 enzyme inhibition (IC50 fluorescence); assay type: in vitro ADME; conditions: substrate BFC: 7-benzoyloxy-4-triflluoromethyl coumarin; read-out: P450 enzyme inhibition (IC50 fluorescence) CYP3A4/BFC
Sequence (P08684 whole entry): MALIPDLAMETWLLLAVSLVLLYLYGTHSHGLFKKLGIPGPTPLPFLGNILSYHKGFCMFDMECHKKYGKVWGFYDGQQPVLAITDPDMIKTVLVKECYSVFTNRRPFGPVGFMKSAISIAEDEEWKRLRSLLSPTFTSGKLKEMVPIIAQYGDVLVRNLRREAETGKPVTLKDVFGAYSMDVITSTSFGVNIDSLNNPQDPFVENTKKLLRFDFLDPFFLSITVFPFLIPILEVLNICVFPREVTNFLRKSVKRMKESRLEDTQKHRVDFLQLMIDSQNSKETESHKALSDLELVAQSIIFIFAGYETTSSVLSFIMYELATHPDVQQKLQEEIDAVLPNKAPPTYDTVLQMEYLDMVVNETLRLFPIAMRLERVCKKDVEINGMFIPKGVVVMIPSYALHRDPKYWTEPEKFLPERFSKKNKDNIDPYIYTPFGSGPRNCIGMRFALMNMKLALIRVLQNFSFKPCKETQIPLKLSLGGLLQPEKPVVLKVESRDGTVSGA
measurement-kind: pIC50
When answering, recall that pIC50 equals minus log10 of the concentration in mol/L, and write that number alone.

Request: Give the reported value of pIC50 for this record: CN(C)c1ccc(/C=C/c2cc(-c3ccc(Br)cc3)cc(-c3ccc(Br)cc3)[o+]2)cc1 [Compound 6jc48-1]
Response: 5.89

###

settings: mouse, in vivo, iv, 10 mg/kg
# key: entry, value: AUCInf
Output spec: scalar in ng·h/mL, unitless text.

Before answering, review these 3 worked examples.
- CN(C)c1ccc(/C=C/c2cc(-c3ccc(Br)cc3)cc(-c3ccc(Br)cc3)[n+]2C2CCCCC2)cc1.[I-] [EL-5]: 4125
- Cc1ccc(/C=C/c2cc(-c3ccc(Br)cc3)cc(-c3ccc(Br)cc3)[n+]2C)cc1.[I-] [EL-11]: 2137
- CC(C)C[n+]1c(/C=C/c2ccc(N(C)C)cc2)cc(-c2ccc(Br)cc2)cc1-c1ccc(Br)cc1.[I-] [EL-1]: 1528

Moving on to another molecule below.
Request: Give the reported value of AUCInf for this record: Cc1ccc(-c2cc(-c3ccc(Br)cc3)cc(/C=C/c3ccc(N(C)C)cc3)[n+]2C)cc1.[I-] [EL-8]
Response: 764

###

biological target: CYP2D6 (Homo sapiens)
Sequence (P10635 whole entry): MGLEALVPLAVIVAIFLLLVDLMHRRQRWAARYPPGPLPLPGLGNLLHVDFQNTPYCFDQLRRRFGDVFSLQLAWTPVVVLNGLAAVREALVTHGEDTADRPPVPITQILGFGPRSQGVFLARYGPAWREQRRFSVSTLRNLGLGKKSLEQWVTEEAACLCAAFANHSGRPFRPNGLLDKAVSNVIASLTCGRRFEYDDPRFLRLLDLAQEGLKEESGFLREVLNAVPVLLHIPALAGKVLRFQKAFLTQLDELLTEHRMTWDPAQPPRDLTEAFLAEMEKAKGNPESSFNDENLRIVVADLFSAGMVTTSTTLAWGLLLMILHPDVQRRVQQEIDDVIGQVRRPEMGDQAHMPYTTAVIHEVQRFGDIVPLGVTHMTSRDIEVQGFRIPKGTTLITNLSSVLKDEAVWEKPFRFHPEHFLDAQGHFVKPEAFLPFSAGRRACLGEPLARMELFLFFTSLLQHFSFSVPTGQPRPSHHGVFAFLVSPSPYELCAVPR
measurement-kind: IC50

Request: Name the recorded IC50 of CN(C)c1ccc(/C=C/c2cc(-c3ccc(Br)cc3)cc(-c3ccc(Br)cc3)[o+]2)cc1 [Compound 6jc48-1] , assay system CYP2D6 (Homo sapiens).
Response: > 10 µM

###

target: UniProt:P33261
Sequence (P33261 whole entry): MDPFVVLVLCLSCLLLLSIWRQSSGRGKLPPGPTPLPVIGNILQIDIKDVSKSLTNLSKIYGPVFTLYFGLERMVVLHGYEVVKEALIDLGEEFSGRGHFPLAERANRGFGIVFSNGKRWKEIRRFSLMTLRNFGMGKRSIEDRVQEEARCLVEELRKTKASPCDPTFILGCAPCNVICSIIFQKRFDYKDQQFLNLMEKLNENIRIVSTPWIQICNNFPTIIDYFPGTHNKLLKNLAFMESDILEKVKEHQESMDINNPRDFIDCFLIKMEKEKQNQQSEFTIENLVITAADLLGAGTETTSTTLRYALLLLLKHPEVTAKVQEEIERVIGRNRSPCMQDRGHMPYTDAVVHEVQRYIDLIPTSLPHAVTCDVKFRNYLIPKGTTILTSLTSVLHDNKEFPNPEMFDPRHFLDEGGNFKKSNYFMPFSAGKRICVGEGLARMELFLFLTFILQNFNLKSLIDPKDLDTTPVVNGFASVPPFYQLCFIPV
pIC50: −log10 of the molar value.
measurement-kind: pIC50

Request: Name the recorded pIC50 of "CN(C)c1ccc(/C=C/c2cc(-c3ccc(Br)cc3)cc(-c3ccc(Br)cc3)[o+]2)cc1" , assay system UniProt:P33261.
Response: < 5.00

###

assay: in vivo; conditions: male, mouse, in vivo, iv, […]
measurement-kind: Vd (L/kg)
Output spec: scalar in L/kg, unitless text.

Request: Give the reported value of Vd for this record: CN(C)c1ccc(/C=C/c2cc(-c3ccc(Br)cc3)cc(-c3ccc(Br)cc3)[o+]2)cc1 [Compound 6jc48-1]
Response: 22.8

###

# key: entry, value: CC50
system: HeLa cells; experiment: Cytotoxicity testing (CC50, MTS assay); conditions: HeLa cells, exposure 24 hour
Output spec: scalar in µg/mL, unitless text.

Before answering, review these 3 worked examples.
- CN(C)c1ccc(/C=C/c2cc(-c3ccc(Br)cc3)cc(-c3ccc(Br)cc3)[n+]2C2CCCCC2)cc1.[I-]: 4
- CN(C)c1ccc(/C=C/c2cc(-c3ccc(Br)cc3)cc(-c3ccc(Br)cc3)[n+]2C)cc1.[I-]: 5
- CC(C)C[n+]1c(/C=C/c2ccc(N(C)C)cc2)cc(-c2ccc(Br)cc2)cc1-c1ccc(Br)cc1.[I-]: 5

Moving on to another compound below.
Request: Name the recorded CC50 of "CC(C)[n+]1c(/C=C/c2ccc(N(C)C)cc2)cc(-c2ccc(Br)cc2)cc1-c1ccc(Br)cc1.[I-]" , assay system HeLa cells.
Response: 9

###

test system: Staphylococcus aureus; assay: Antibacterial activity assay (MIC, broth dilution); format: cell-based; conditions: Staphylococcus aureus; Table 16; CLSI M07-A10 dilution method; read-out: MIC S. aureus
measurement-kind: MIC (µg/mL)
Output spec: scalar in µg/mL, unitless text.

- CN(C)c1ccc(/C=C/c2cc(-c3cccc(Br)c3)cc(-c3ccc(Br)cc3)[n+]2C)cc1: 1
- CCN(CC)c1ccc(/C=C/c2cc(-c3cc(OC)c(Br)c(OC)c3)cc(-c3ccc(Br)cc3)[n+]2C)cc1.[I-]: 1

Moving on to another molecule below.
Request: Give the reported value of MIC for this record: "Cc1ccc(-c2cc(-c3ccc(Br)cc3)cc(/C=C/c3ccc(N(C)CCO)cc3)[n+]2C)cc1C.[I-]"
Response: 1

###

test system: Staphylococcus aureus; assay: Antibacterial activity assay (MIC, broth dilution); type: cell-based; details: Staphylococcus aureus; Table 16; CLSI M07-A10 dilution method; read-out: MIC S. aureus
measurement-kind: MIC (µg/mL)
Output spec: scalar in µg/mL, unitless text.

Before answering, review these 3 worked examples.
• COc1cc(-c2cc(/C=C/c3ccc(N(C)C)cc3)[n+](C)c(-c3ccc(Br)cc3)c2)cc(OC)c1Br.[I-] = 2
• Cc1ccc(/C=C/c2cc(-c3ccc(Br)cc3)cc(-c3ccc(Br)cc3)[n+]2C)cc1.[I-] = 1
• CN(C)c1ccc(/C=C/c2cc(-c3ccc(Br)cc3Cl)cc(-c3ccc(Br)cc3)[n+]2C)cc1.[I-] = 4

Request: Give the reported value of MIC for this record: "COc1cc(-c2cc(/C=C/c3ccc(N(C)CCC#N)cc3)[n+](C)c(-c3ccc(Br)cc3)c2)cc(OC)c1Br.[I-]"
Response: 4
